Target: PGD2 Receptor (Homo sapiens)
Construct: A suspension adjusted to contain platelet at a final concentration of; endogenous in cells; host or cells: washed human platelets from peripheral blood of a healthy volunteer
Sequence (Q13258 1-359): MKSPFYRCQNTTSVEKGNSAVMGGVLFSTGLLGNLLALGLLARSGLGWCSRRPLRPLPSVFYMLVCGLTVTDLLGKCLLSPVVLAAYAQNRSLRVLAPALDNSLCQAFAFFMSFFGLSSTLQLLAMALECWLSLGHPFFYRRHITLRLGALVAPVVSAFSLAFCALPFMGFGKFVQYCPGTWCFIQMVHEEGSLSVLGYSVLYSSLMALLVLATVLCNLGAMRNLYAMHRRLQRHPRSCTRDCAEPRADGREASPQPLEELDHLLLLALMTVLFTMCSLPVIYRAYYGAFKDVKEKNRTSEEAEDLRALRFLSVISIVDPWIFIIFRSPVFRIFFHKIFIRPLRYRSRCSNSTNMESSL
Test: Antagonistic activity against PGD2 receptor using human platelet (PGD2-induced cAMP increase)
Type: cell-based
Conditions: human platelets 5×10^8/ml, 0.1 μM PGD2, IBMX 0.5 mM, cAMP by radioimmunoassay; read-out: IC50 (inhibition of cAMP increased by PGD2)
pIC50: −log10 of the molar value.
pIC50 values, listed per item

structure-smiles: CC1(C)[C@H]2C[C@H](C/C=C\CCCC(=O)O)[C@@H](NC(=O)c3cccc4c(Br)csc34)[C@@H]1C2
assay-system: PGD2 Receptor (Homo sapiens)
pIC50: 7.96
//
structure-smiles: COc1csc2c(C(=O)N[C@@H]3[C@@H](C/C=C\CCCC(=O)O)C[C@H]4C[C@@H]3C4(C)C)cccc12
assay-system: PGD2 Receptor (Homo sapiens)
pIC50: 8.36
//
structure-smiles: Cc1csc2c(C(=O)N[C@@H]3[C@@H](C/C=C\CCCC(=O)O)C[C@H]4C[C@@H]3C4(C)C)cccc12
assay-system: PGD2 Receptor (Homo sapiens)
pIC50: 6.82
//
structure-smiles: CC1(C)[C@H]2C[C@H](C/C=C\CCCC(=O)O)[C@@H](NC(=O)c3cccc4ccsc34)[C@@H]1C2
assay-system: PGD2 Receptor (Homo sapiens)
pIC50: 7.38

====

pIC50 values, listed per item
Biological target: PGD2 Receptor (Homo sapiens)
Construct: A suspension adjusted to contain platelet at a final concentration of; endogenous in cells; host or cells: washed human platelets from peripheral blood of a healthy volunteer
Sequence (Q13258 1-359): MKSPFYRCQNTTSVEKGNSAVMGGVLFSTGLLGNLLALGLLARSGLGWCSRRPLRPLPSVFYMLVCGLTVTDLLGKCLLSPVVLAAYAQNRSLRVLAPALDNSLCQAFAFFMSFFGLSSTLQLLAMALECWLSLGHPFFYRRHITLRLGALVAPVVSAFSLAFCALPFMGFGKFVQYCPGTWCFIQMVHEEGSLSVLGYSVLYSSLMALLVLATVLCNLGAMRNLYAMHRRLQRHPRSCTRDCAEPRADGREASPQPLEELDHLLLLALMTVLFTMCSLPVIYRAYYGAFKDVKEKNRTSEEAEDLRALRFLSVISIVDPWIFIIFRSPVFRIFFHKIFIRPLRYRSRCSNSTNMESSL
Assay: Binding to PGD2 receptor (human platelet membrane fraction, [3H]PGD2)
Settings: human platelet membrane fraction 0.1 mg, 5 nM [3H]PGD2, 4° C., 90 min, pH 7.4; read-out: IC50 (inhibition of [3H]PGD2 binding)
pIC50: −log10 of the molar value.

structure-smiles: CC1(C)[C@H]2C[C@H](C/C=C\CCCC(=O)O)[C@@H](NC(=O)c3cccc4c(Br)csc34)[C@@H]1C2
assay-system: PGD2 Receptor (Homo sapiens)
pIC50: 8.92

structure-smiles: CC1(C)[C@H]2C[C@H](C/C=C\CCCC(=O)O)[C@@H](NC(=O)c3cccc4ccsc34)[C@@H]1C2
assay-system: PGD2 Receptor (Homo sapiens)
pIC50: 7.59

structure-smiles: COc1csc2c(C(=O)N[C@@H]3[C@@H](C/C=C\CCCC(=O)O)C[C@H]4C[C@@H]3C4(C)C)cccc12
assay-system: PGD2 Receptor (Homo sapiens)
pIC50: 9.39

structure-smiles: Cc1csc2c(C(=O)N[C@@H]3[C@@H](C/C=C\CCCC(=O)O)C[C@H]4C[C@@H]3C4(C)C)cccc12
assay-system: PGD2 Receptor (Homo sapiens)
pIC50: 7.96
